Entry source: a melting point compilation (Tetko et al.; mined from patent text by program, amines drawn as free bases though some values may be those of a salt)

Each entry below lists one item and its recorded melting point value.

Recorded results for 5 compounds are shown here.
O=C(O)c1ccc(OCCCNc2ccc(NCc3ccc4c(c3)OCCO4)cc2)cc1 = 246 to 247 °C
Cc1cc(C)cc(-c2nc(NC(=O)C3CCCC3)sc2-c2ccncc2)c1 = 275 to 278 °C
CN(C)C(=O)Nc1cc(C(F)(F)F)on1 = 126 °C
C=CCCCCCCCCOc1ccc(O)cc1 = 54 to 55 °C
O=C(Cc1cccc(O)c1)NNC(=O)c1ccc(O)c([N+](=O)[O-])c1 = 190 to 193 °C

Note: attention shifts to another entry.
What measured melting point goes with `O=C(Nc1cc(Cl)ccn1)c1ccccn1` ? 118 to 120 °C

====

READOUT NAME: melting point

O=C(CNS(=O)(=O)c1ccccc1)c1ccc(OCc2ccccc2)cc1 = 148 to 149 °C
O=Cc1c2n(c3cc(Br)ccc13)CCNCC2 = 186 to 188 °C
Cc1ccc2c(c1)c(=O)c1c(cnn1C)n2CCCl = 116 to 119 °C
CC(C)c1cc(-c2ccc(F)cc2)c(C=O)c(C(C)C)n1 = 72 to 75 °C
Cc1nc2nn(-c3ccccc3)c(N)c2c(=O)[nH]1 = 279 to 281 °C

Let us examine a further case.
Please report the recorded melting point for `CNC(=O)c1cc(Br)cc(C)c1N` . 133 to 135 °C

====

The following compounds are shown together with reported melting point values.

Nc1cc(I)c(I)cc1N = 135 to 136 °C

Reported melting point for `Cn1c(COc2nn3c(-c4ccccc4F)nncc3c2-c2ccccc2F)nc2ccccc21` : what is it? 218 to 220 °C

What does the data say about its melting point? Entry: `Cc1cccc(C(=O)Nc2c[nH]nc2C(=O)NCC(C)(C)C#N)n1` 250 to 251 °C

Recorded melting point for `CN1CC=C(c2c[nH]c3ccc(-c4cnc5[nH]cc(C(=O)C(C)(C)C)c5n4)cc23)CC1` , please? 263 to 265 °C

Fill in: melting point of `CC(C)n1nc(-c2cc(C#N)c(C(N)=O)nc2-c2ccccc2)ccc1=O` is ___ 221 to 223 °C

Quick one: melting point of `C=CCNc1ncnc2c1ncn2Cc1c(F)cccc1Cl` ? 163 to 164 °C

====

READOUT NAME: melting point

COCO[C@H]1C(=O)Nc2ccccc2S[C@H]1c1ccc(OC)cc1 = 125 to 126 °C
CCOC(=O)c1cc(C(=O)CBr)c(=O)[nH]c1C(=O)OCC = 141 to 142 °C
COc1oc2cccc(-c3ccc(O)cc3)c2c1C(C)=O = 222 °C
CCOC(=O)c1c(C)nc2[nH]ncc2c1OCC = 180 to 182 °C
CN(C)c1ccc(C(=O)c2ccc(N)cc2)cc1 = 150 °C
Cc1ccccc1NC(=O)Nc1ccc(CC(=O)O)cc1 = 205 to 206 °C
CCN(CC)C(=O)n1nc(Oc2ncc(C(F)(F)F)cc2Cl)cc1C(F)(F)F = 58 to 60 °C
COC(=O)c1ccc(Cn2c(=O)c(C)c3sc(C(=O)NCc4ccc(F)cc4)cn3c2=O)cc1C = 179 to 180 °C

So what does the record say about melting point for `Cc1cccc(OC(C)(C)C(=O)O)c1C` ? 71 to 73 °C

I would be grateful if you could share the reported melting point for `COC1(c2csc(S(=O)(=O)c3ccc4c(c3)CC/C4=N\O)c2)CCOCC1` . 144 to 145 °C

====

READOUT NAME: melting point

O=C(Cl)N1CC(Oc2ccc(Br)cc2)C1 = 77 to 78 °C
CC(SC(=O)c1ccccc1)C(=O)NCCC(=O)O (stereo unspecified) = 94 to 97 °C
O=C1CC2(CCCCC2)CC(=O)N1c1ccncc1 = 213 to 215 °C
CCNCC1CCN(c2c(F)cc3c(=O)c(C(=O)O)cn(NC)c3c2F)C1 (stereo unspecified) = 222 to 224 °C
COc1cc(OC)c2c(=O)c(OC)c(-c3ccc(O)c(OC)c3)oc2c1 = 221 to 223 °C

Requested read-out: melting point. Entry: `c1ccc(-c2cc3cccc(CSCCN4CCCCC4)c3o2)cc1` 64.5 to 65.5 °C

Data request, read-out melting point, for CC(C)ON=Cc1nn(-c2c(Cl)cc(C(F)(F)F)cc2Cl)c(N)c1S(C)=O (stereo unspecified) 128 to 130 °C

What value of melting point has been recorded for this entry: COC1CN(CC2CCCO2)CCC1NC(=O)c1cc(Cl)c(N)c2c1OCCC2 (stereo unspecified) 158 °C

// query melting point value for entry `C=CCn1c(OC)n[nH]c1=O` 111 °C

So what does the record say about melting point for `BrC(Br)(Br)c1nnnn1-c1ccccc1` ? 141 to 142 °C

Consider the compound shown here: `CCN(CC)C(=O)c1c(C(=O)c2cc3cnccc3n2S(=O)(=O)c2ccccc2)ccnc1OC` What is its recorded melting point? 150 °C

====

READOUT NAME: melting point

Dear colleague, I am looking for the recorded melting point of the following compound: `COc1ccccc1C(=O)OCC(=O)c1ccccc1` 78 to 79 °C

# lookup: melting point of COc1cccc(CC2NC(=O)NC2=O)c1OCc1ccccc1 (racemic) 202 to 204 °C

Any idea what its melting point is? The compound is `COc1cccc(NC=C2C(=O)OC(C)(C)OC2=O)c1` 108 °C

Would you kindly share the measured melting point for COc1ccc2c(c1)OC(=O)C(C)(C#Cc1ccccc1)C2 (stereo unspecified) ? 136 to 138 °C

Value lookup for melting point; key = `CCn1cc(-c2cccc(C(F)(F)F)c2)c(=O)n1-c1cccc(Br)c1` 106 °C

Please look up its melting point: `CC(C)(CCc1cc2cc(Cl)ccc2n1S(=O)(=O)c1ccc2ncsc2c1)C(=O)O` 151 °C

Form field: reported melting point of `CN(C)CC(=O)NCC#Cc1cnc2c(c1)N(Cc1c(Cl)cccc1Cl)CCN2` > 200 °C

Look up melting point: `CC(C)(O)C(=O)N[C@H]1CC[C@H](CCN2CCC(c3cccc4c3CCO4)CC2)CC1` 163 °C

Quick one: melting point for `CCc1c(-c2ccc(OCc3ccccc3)cc2)c2cc(COC)c3cccc1n32` ? 111 to 113 °C

Look up melting point: CC=C1OCC2(CO1)COC(=CC)OC2 (stereo unspecified) 30 °C

Data request, read-out melting point, for `CCOC(=O)N1CCC(C(=O)O)=Cc2ccccc21` 176 °C

What does the record list as melting point for `COC1CCN(c2cc3c(cc2C#Cc2ccccc2)NC(=O)CC(c2cccc(-n4ccnc4)c2)=N3)CC1` ? 222 °C

Would you mind telling me what melting point value was observed for Cc1cc(NS(=O)(=O)c2cc(C3(O)CCC(=O)N3C)ccc2Cl)cc(C(C)(C)C)c1O (stereo unspecified) ? 120 °C

For the compound O=C(OCc1ccccc1)C1CCc2[nH]c3ccccc3c2C1 (stereo unspecified) , what melting point is on record? 104 to 105 °C

Reported melting point, compound `C#CCOc1cc(-n2c(OC)nc(C(F)(F)F)cc2=O)c(F)cc1Cl` : ____ 108 to 110 °C

Bench note: what melting point did `CS(=O)(=O)c1ccc(-c2cnn(CC(F)(F)F)c(=O)c2OCc2ccccc2)cc1` show? 121 to 123 °C

====

READOUT NAME: melting point

Solved entries:
CCCCCCCC[C@H](O)[C@H](O)[C@H]1CCC(=O)O1 = 117 to 119 °C
O=C(Nc1c(Cl)cncc1Cl)c1ccc(OC(F)F)c2oc3ccc(C(F)(F)F)cc3c12 = 228 °C
COC(=O)c1ccccc1NC(=O)c1c(-c2ccccc2)c(-c2ccc(F)cc2)c(C=O)n1C(C)C = 222 to 223 °C
CC1(C)CC(OC(=O)NNC(=O)OC2CC(C)(C)N(OC3CCCCC3)C(C)(C)C2)CC(C)(C)N1OC1CCCCC1 = 150 to 152 °C
O=C(c1ccc2c(c1)OCC(CN1CCOCC1)N2)N1CCOCC1 (stereo not given) = 125 to 126 °C

What does the record list as melting point for `Nc1ccc(C(=O)O)c(C(=O)O)c1` ? 188 °C

Dear colleague, I am looking for the recorded melting point of the following compound: `CCSC1=NCC(=O)N1c1cc(Cl)ccc1C` 137 to 139 °C

Quick check: melting point of `CCCCCCCCCCCCC1=C(O)C(=O)c2ccccc2C1=O` ? 85 to 87 °C

Given the compound CN(c1cc(OCCCS(C)(=O)=O)cc2cc(C(=O)NCC(CN3CCN(S(C)(=O)=O)CC3)SCc3ccccc3)[nH]c12)S(=O)(=O)c1ccccn1 (stereo not given) , what is its reported melting point? 195 to 196 °C

Given `CC(=O)Nc1ccc(SC(F)(F)C(F)F)cc1` , state its recorded melting point. 134 to 135 °C
